Assay: IUF_NPC2-5_cell_number_120hr: Cell Number Assessment at 120 hours in the Leibniz Research Institute for Environmental Medicine (IUF) Neural Progenitor Cell Migration and Differentiation Assay (NPC2-5) (AID 2284308);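 further: count of Hoechst-stained nuclei in migration zone around plated human neural progenitor spheres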
Active and inactive are the calls of the source. How the source made its calls: active means hit-call score of the fitted dose curve at least 0.9, where 1 is the maximum; inactive means score below 0.9.
Tick one outcome: active, inactive

Solved cases (5 shown):
{"compound": "CCc1ccccc1", "category": "inactive"}
{"compound": "CC(C)c1nn(C(=O)NC(C)(C)C)c(=O)n1N", "category": "inactive"}
{"compound": "CC(=O)OC/N=[N+](\\C)[O-]", "category": "inactive"}
{"compound": "C[C@@H]1CCO[C@H]2Cn3cc(C(=O)NCc4ccc(F)cc4F)c(=O)c(O)c3C(=O)N12", "category": "inactive"}
{"compound": "CN(C)CCCn1cc(C2=C(c3c[nH]c4ccccc34)C(=O)NC2=O)c2ccccc21", "category": "active"}

Q: Could you please tell me the result logged for BrC1CC(Br)CC(Br)CC(Br)CC(Br)CC(Br)C1 (centres undefined) in this assay?
Ans: inactive

Q: Could you please tell me the result logged for CCCCCC(C)(CC)C(=O)NC (centres undefined) in this assay?
Ans: inactive

Q: Could you please tell me the result logged for F in this assay?
Ans: inactive

Q: Could you please tell me the result logged for CC(=O)N[C@@H](CC(=O)O)C(=O)O in this assay?
Ans: inactive

====

Molecular target: Cellular tumor antigen p53 (Homo sapiens)
Experiment: TOX21_p53_BLA_p3_ratio: Tox21 HCT-116 p53 Agonism Beta-lactamase Assay, Ratio, Phase 3 (AID 2283596)
Results filed as inconclusive are left out. Activity calls are given as the source filed them. How the source made its calls: active means hit-call score of the fitted dose curve at least 0.9, where 1 is the maximum; inconclusive means response in the unintended direction; inactive means score below 0.9.
measurement-name: outcome

As a guide, the following entries are already answered.
{"compound": "CC(C)NCC(O)COc1ccccc1-n1cccc1 (stereo not drawn)", "system-under-test": "Cellular tumor antigen p53 (Homo sapiens)", "outcome": "inactive"}
{"compound": "CNC(=O)[C@H](Cc1c[nH]c2ccccc12)NC(=O)[C@@H](CC(=O)NO)CC(C)C", "system-under-test": "Cellular tumor antigen p53 (Homo sapiens)", "outcome": "inactive"}
{"compound": "COC(=O)C(C)(C)C", "system-under-test": "Cellular tumor antigen p53 (Homo sapiens)", "outcome": "inactive"}
{"compound": "CC(=O)O[C@H]1CC[C@@]2(C)C(=CC[C@@H]3[C@@H]2CC[C@]2(C)C(c4cccnc4)=CC[C@@H]32)C1", "system-under-test": "Cellular tumor antigen p53 (Homo sapiens)", "outcome": "inactive"}
{"compound": "Cc1cc(=O)c(C(=O)N[C@@H](C(=O)N[C@@H]2C(=O)N3C(C(=O)O)=C(CSc4nnnn4C)CS[C@H]23)c2ccc(O)cc2)c[nH]1", "system-under-test": "Cellular tumor antigen p53 (Homo sapiens)", "outcome": "inactive"}
{"compound": "C=C(C)C(=O)OC", "system-under-test": "Cellular tumor antigen p53 (Homo sapiens)", "outcome": "inactive"}

For every item in the list below, what is its measured outcome?
1. OCCCCCCCl
2. CCCSSC(CCO)=C(C)N(C=O)Cc1cnc(C)nc1N
3. CC(C)NC[C@@H](O)COc1cccc2ccccc12
4. CC[C@@H](N)CO
5. Cc1cc(O)ccc1O
6. Cc1ccc(O)c(N)c1
7. CC(=NCc1ccccc1)c1ccccc1O

Ans:
["inactive", "inactive", "inactive", "inactive", "inactive", "inactive", "inactive"]

====

Assay: CCTE_Mundy_HCI_iCellGluta_NOG_NeuronCount: CCTE's Neurite Outgrowth Assay in iCellGluta cells for Neuron Count, Mundy Lab (AID 2284340);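 further: cells fixed about 48 h after compound addition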
Records with an inconclusive call do not appear. Active and inactive are the calls of the source. The calls were made as follows: active = hit-call score of the fitted dose curve at least 0.9, where 1 is the maximum; inconclusive = response in the unintended direction; inactive = score below 0.9.
Tick one outcome: active, inactive

Solved cases (5 shown):
{"compound": "CCCCCC=C(C)C(CC)CCO (configuration not stated)", "category": "inactive"}
{"compound": "CC(CNC(=S)[S-])NC(=S)[S-].[Zn+2] (configuration not stated)", "category": "active"}
{"compound": "BrC1CC(Br)CC(Br)CC(Br)CC(Br)CC(Br)C1 (configuration not stated)", "category": "active"}
{"compound": "C[C@@H]1CCO[C@H]2Cn3cc(C(=O)NCc4ccc(F)cc4F)c(=O)c(O)c3C(=O)N12", "category": "inactive"}
{"compound": "Cc1[nH]n(C)c(=O)c1C(=O)c1ccc(C(F)(F)F)cc1S(C)(=O)=O", "category": "inactive"}

Q: Could you please tell me the result logged for CC(C)c1nn(C(=O)NC(C)(C)C)c(=O)n1N in this assay?
Ans: inactive

Q: Could you please tell me the result logged for CCCCCC(C)(CC)C(=O)NC (configuration not stated) in this assay?
Ans: inactive

====

Target: Thyroid hormone receptor alpha (Rattus norvegicus) + Thyroid hormone receptor beta (Rattus norvegicus) (UniProt P18113+P63059)
Assay: TOX21_TR_LUC_GH3_Antagonist_Followup: Tox21 GH3 Thyroid Hormone Receptor Antagonism Luciferase Follow-Up Assay (AID 2283942)
Results filed as inconclusive are left out. Active and inactive are the calls of the source. Rule for the calls: active = hit-call score of the fitted dose curve at least 0.9, where 1 is the maximum; inconclusive = response in the unintended direction; inactive = score below 0.9.
Tick one outcome: active, inactive

{"molecule": "C#C[C@]1(O)CC[C@H]2[C@@H]3CCC4=C(CCC(=O)C4)[C@H]3CC[C@@]21C", "category": "inactive"}
{"molecule": "COc1cc(C(=O)NC2CCCNC2)cc(OC)c1OC (stereo unspecified)", "category": "inactive"}
{"molecule": "NNc1nnc(Cc2ccncc2)c2ccccc12", "category": "inactive"}
{"molecule": "Cc1ccc(Nc2nccc(N(C)c3ccc4c(C)n(C)nc4c3)n2)cc1S(N)(=O)=O", "category": "active"}
{"molecule": "O=C(O)c1cccnc1Nc1cccc(C(F)(F)F)c1", "category": "inactive"}

Q: Could you please tell me the result logged for Cc1nc2ccc(CN(C)c3ccc(C(=O)N[C@@H](CCC(=O)O)C(=O)O)s3)cc2c(=O)[nH]1 in this assay?
Ans: inactive

====

Test: CCTE_Shafer_MEA_dev_per_network_spike_spike_number_mean: CCTE's Neural Network Formation Assay for Mean Number of Spikes in a Network Spike, Shafer Lab (AID 2284053)
Active and inactive are the calls of the source. Rule for the calls: active = hit-call score of the fitted dose curve at least 0.9, where 1 is the maximum; inactive = score below 0.9.
Tick one outcome: Yes = active, No = inactive

{"structure-notation": "[O]=[V]([OH])([OH])[OH]", "category": "Yes"}
{"structure-notation": "Brc1cc(Br)c(Oc2cc(Br)c(Br)cc2Br)cc1Br", "category": "No"}
{"structure-notation": "C[C@@H]1CC[C@@H](C(C)(C)O)[C@H](O)C1", "category": "No"}
{"structure-notation": "CC(C)c1nn(C(=O)NC(C)(C)C)c(=O)n1N", "category": "No"}
{"structure-notation": "Cc1[nH]n(C)c(=O)c1C(=O)c1ccc(C(F)(F)F)cc1S(C)(=O)=O", "category": "No"}

Q: Could you please tell me the result logged for CC(=O)N[C@@H](CC(=O)O)C(=O)O in this assay?
Ans: No

Q: Could you please tell me the result logged for c1ccc2c(c1)ccc1c3ccccc3ccc21 in this assay?
Ans: No

Q: Could you please tell me the result logged for O=C1CC2(CCCC2)CC(=O)N1CCCCN1CCN(c2ncccn2)CC1 in this assay?
Ans: Yes

Q: Could you please tell me the result logged for c1cc2c3c(c1)ccc1cccc(c13)C2 in this assay?
Ans: No

Q: Could you please tell me the result logged for F in this assay?
Ans: No

====

Assay: CCTE_Shafer_MEA_dev_network_spike_peak: CCTE's Neural Network Formation Assay for Mean Number of Electrodes in Network Spike, Shafer Lab (AID 2284049)
Description: CCTE_Shafer_MEA_dev assay is conducted using Axion Biosystems 48 well microelectrode array (MEA) plates and Maestro recording system. Each well of the MEA plate contains a grid of 16 microelectrodes embedded in the culture surface. Electrically active cells, such as neurons, can be cultured over the electrodes, and electrical activity in these cells can be recorded extracellularly. […]
The source made the active and inactive calls. How the source made its calls: active means hit-call score of the fitted dose curve at least 0.9, where 1 is the maximum; inactive means score below 0.9.
Tick one outcome: y for active, n for inactive

Q: Could you please tell me the result logged for CCCCCC(C)(CC)C(=O)NC (configuration not stated) in this assay?
Ans: n

Q: Could you please tell me the result logged for C[C@@H]1CCO[C@H]2Cn3cc(C(=O)NCc4ccc(F)cc4F)c(=O)c(O)c3C(=O)N12 in this assay?
Ans: y

====

Test: CCTE_Mundy_HCI_Cortical_Synap_Neur_Matur_NeuriteLength: CCTE's Synaptogenesis and Neurite Maturation Assay in rat cortical cells for Neurite Length, Mundy Lab (AID 2284214)
Active and inactive are the calls of the source. Rule for the calls: active = hit-call score of the fitted dose curve at least 0.9, where 1 is the maximum; inactive = score below 0.9.
Tick one outcome: active, inactive

Solved cases (3 shown):
{"molecule": "CCCCCC(C)(CC)C(=O)NC (stereo unspecified)", "category": "inactive"}
{"molecule": "[O]=[V]([OH])([OH])[OH]", "category": "active"}
{"molecule": "BrC1CC(Br)CC(Br)CC(Br)CC(Br)CC(Br)C1 (stereo unspecified)", "category": "active"}

Consider the record given below.
Q: Could you please tell me the result logged for CCc1ccccc1 in this assay?
Ans: inactive

Data credit: PubChem BioAssay (EPA / NIEHS)
